Recorded protein stability index for the following variants
B1: IFRG15 (parent)
chain: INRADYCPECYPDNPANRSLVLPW

Variants of: B1
Test: protein stability index of a GFP-peptide fusion (GPS, HEK-293T) (PSI 1-6); higher = more stable;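 also: lentivirally expressed fusions sorted by FACS into six bins by GFP to DsRed ratio, PSI derived from sequencing read proportions per bin multiplied by bin number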
Conditions: c terminus: a fixed tail appended
The response must contain the number and no unit.

Answered examples (2):
A4R
1.83
Y11E
2.73

Briefly, protein stability index measured for R3C : 1.66

Briefly, protein stability index measured for N14S : 2.72

Briefly, protein stability index measured for L20D : 2.73

Briefly, protein stability index measured for C10D : 3.65

Briefly, protein stability index measured for C7H : 2.13

Briefly, protein stability index measured for P12H : 1.91

Briefly, protein stability index measured for D13E : 1.86

Briefly, protein stability index measured for V21T : 2.43

Briefly, protein stability index measured for C7K : 2.95

Briefly, protein stability index measured for C7L : 1.97
